- System: Mycobacterium tuberculosis
- Test Protocol: Inhibition of Mycobacterium tuberculosis MTCC 300 DAH7PS expressed in Escherichia coli BL21 (DE3) using 25 to 125 uM PEP/100 uM E4P as substrate at 10 uM by spectrophotometric analysis relative to control
Lab note: compare inhibition against 20%. Equal or greater, write satisfied. Smaller, write not satisfied.

{"Molecule": "O=C(/C=C/c1ccc(O)c(O)c1)O[C@@H]1C[C@](O)(C(=O)O)C[C@@H](O)[C@H]1O", "Label": "not satisfied"}
{"Molecule": "Cc1c(C)c2c(c(C)c1O)CC[C@@](C)(CCC[C@H](C)CCC[C@H](C)CCCC(C)C)O2", "Label": "satisfied"}
{"Molecule": "O=Cc1cccnc1", "Label": "not satisfied"}
{"Molecule": "C[C@@H]1O[C@@H](OC[C@H]2O[C@@H](Oc3c(-c4ccc(O)c(O)c4)oc4cc(O)cc(O)c4c3=O)[C@H](O)[C@@H](O)[C@@H]2O)[C@H](O)[C@H](O)[C@H]1O", "Label": "not satisfied"}
{"Molecule": "C[C@]1(O)CC[C@@H]2C(C(=O)O)=CO[C@@H](O[C@@H]3O[C@H](CO)[C@@H](O)[C@H](O)[C@H]3OC(=O)c3ccc(O)cc3)[C@@H]21 [NEGUNDOSIDE]", "Label": "not satisfied"}

// query Please check the record "N[C@@H](Cc1ccc(O)cc1)C(=O)O" and state if its inhibition is at or above 20%.
// result satisfied
